Target: NK3 (Homo sapiens, UniProt P29371)
Sequence (P29371 whole entry): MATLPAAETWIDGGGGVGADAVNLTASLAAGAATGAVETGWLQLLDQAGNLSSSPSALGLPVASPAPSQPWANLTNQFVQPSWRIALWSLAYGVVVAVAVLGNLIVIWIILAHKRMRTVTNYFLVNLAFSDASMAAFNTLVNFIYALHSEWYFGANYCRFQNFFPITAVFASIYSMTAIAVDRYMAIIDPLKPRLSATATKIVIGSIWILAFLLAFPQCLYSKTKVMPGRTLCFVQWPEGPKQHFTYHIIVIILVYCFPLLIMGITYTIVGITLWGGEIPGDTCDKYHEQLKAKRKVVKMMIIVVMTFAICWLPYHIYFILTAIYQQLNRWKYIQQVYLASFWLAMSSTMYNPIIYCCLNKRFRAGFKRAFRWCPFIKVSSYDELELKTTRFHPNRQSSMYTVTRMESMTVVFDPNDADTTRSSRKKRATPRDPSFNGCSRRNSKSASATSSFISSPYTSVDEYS
Assay: Signal transduction (ST), intracellular Ca++ (FLIPR), NK3
Format: cell-based
Conditions: antagonist, read-out: NK3 pIC50 (converted)
IC50 strictly under 2 µM means yes (1); at 2 µM or over means no (0).

Some entries whose results are on file:
| compound | targetOfAssay | assignedClass |
| --- | --- | --- |
| O=C(c1cc(C(F)(F)F)cc(C(F)(F)F)c1)N1CC[C@H](N2CCC3(CC2)CCN(S(=O)(=O)c2ccc(Cl)s2)CC3)C[C@H]1Cc1ccccc1 | NK3 (Homo sapiens, UniProt P29371) | yes (1) |
| O=C1CC2(CCN1Cc1ccoc1)CCN([C@@H]1CCN(C(=O)c3cc(C(F)(F)F)cc(C(F)(F)F)c3)[C@H](Cc3ccccc3)C1)CC2 | NK3 (Homo sapiens, UniProt P29371) | no (0) |
| O=C(c1cc(C(F)(F)F)cc(C(F)(F)F)c1)N1CC[C@H](N2CCC3(CC2)CCN(S(=O)(=O)Cc2ccccc2)CC3)C[C@H]1Cc1ccccc1 | NK3 (Homo sapiens, UniProt P29371) | no (0) |
| Cc1cn(CC(=O)N2CCC3(CC2)CCN([C@H]2CCN(C(=O)c4cc(C(F)(F)F)cc(C(F)(F)F)c4)[C@H](Cc4ccccc4)C2)CC3)c(=O)[nH]c1=O | NK3 (Homo sapiens, UniProt P29371) | no (0) |
| O=C(c1cc(C(F)(F)F)cc(C(F)(F)F)c1)N1CC[C@H](N2CCC3(CC2)CCN(S(=O)(=O)C(F)(F)F)CC3)C[C@H]1Cc1ccccc1 | NK3 (Homo sapiens, UniProt P29371) | no (0) |
| O=C(c1cc(C(F)(F)F)cc(C(F)(F)F)c1)N1CC[C@H](N2CCC3(CC2)CCN(S(=O)(=O)c2ccsc2)CC3)C[C@H]1Cc1ccccc1 | NK3 (Homo sapiens, UniProt P29371) | yes (1) |
| Cc1nnsc1C(=O)N1CCC2(CC1)CCN([C@H]1CCN(C(=O)c3cc(C(F)(F)F)cc(C(F)(F)F)c3)[C@H](Cc3ccccc3)C1)CC2 | NK3 (Homo sapiens, UniProt P29371) | no (0) |
| O=C(c1cc(C(F)(F)F)cc(C(F)(F)F)c1)N1CC[C@H](N2CCC3(CCN(C(=O)C4(c5ccccc5)CC4)CC3)CC2)C[C@H]1Cc1ccccc1 | NK3 (Homo sapiens, UniProt P29371) | no (0) |

Challenge: Consider CC(=O)Nc1ccc(S(=O)(=O)N2CCC3(CCN([C@H]4CCN(C(=O)c5cc(C(F)(F)F)cc(C(F)(F)F)c5)[C@H](Cc5ccccc5)C4)CC3)CC2)cc1 . Does its IC50 lie strictly below 2 µM?
Response given: yes (1)

Challenge: Dear colleague, could you confirm whether IC50 of CC(C)(C)OC(=O)N1CCCC1C(=O)N1CCC2(CCN(C[C@H]3CCN(C(=O)c4cc(C(F)(F)F)cc(C(F)(F)F)c4)[C@H](Cc4ccccc4)C3)CC2)CC1 (some centres unmarked) falls below 2 µM? Thanks.
Response given: no (0)

Challenge: Please state whether IC50 is below 2 µM for O=C(C1CC1)N1CCC2(CC1)CCN(C1CCN(C(=O)c3cc(C(F)(F)F)cc(C(F)(F)F)c3)C(Cc3ccccc3)C1)CC2 (centres unmarked)
Response given: yes (1)

Entry source: patent US7544694B2
